- Test system: WPMY1-ACTB-RAB5A
- test: lowest phenotypically active concentration; higher = less potent
- stated.conditions: treatment time: 24 h
// lowest phenotypically active concentration lookup, one value per entry
// units = µM; emit number, no label

Recorded results for 2 molecules are shown here.
{"molecule": "CCc1cc(-c2n[nH]c(C)c2-c2ccc3c(c2)OCCO3)c(O)cc1O", "study.target": "WPMY1-ACTB-RAB5A", "data.value": 3}
{"molecule": "Cc1ccc(-n2sc3ccccc3c2=O)cc1", "study.target": "WPMY1-ACTB-RAB5A", "data.value": 9}

I have this molecule here, CC1=C(/C=C/C(C)=C\C=C\C(C)=C\C(=O)O)C(C)(C)CCC1 , and I need its recorded lowest phenotypically active concentration.
1

Continue with CN1CCC(=C2c3ccccc3CC(=O)c3sccc32)CC1
9

Continue with COc1cc(/C=C/c2ccc(OC)cc2OC)cc(OC)c1
1

Continue with CC(CN(C)C)CN1c2ccccc2Sc2ccccc21.CC(CN(C)C)CN1c2ccccc2Sc2ccccc21 (configuration not stated)
9

###

// lowest phenotypically active concentration lookup, one value per entry
- Tested on: WPMY1-ACTB-RAB5A
- test: lowest phenotypically active concentration; higher = less potent
- stated.conditions: treatment time: 24 h
Structures can show the parent of a compound that is named as a salt.

Recorded results for 5 molecules are shown here.
{"molecule": "CN1CC[C@H](c2c(O)cc(O)c3c(=O)cc(-c4ccccc4Cl)oc23)[C@H](O)C1 [Flavopiridol hydrochloride]", "study.target": "WPMY1-ACTB-RAB5A", "data.value": "≤ 0.3 µM"}
{"molecule": "NC(=O)Nc1cc(-c2cccc(F)c2)sc1C(=O)N[C@H]1CCCNC1 [AZD 7762 hydrochloride]", "study.target": "WPMY1-ACTB-RAB5A", "data.value": "≤ 0.3 µM"}
{"molecule": "Cc1cc(Nc2cc(N3CCN(C)CC3)nc(Sc3ccc(NC(=O)C4CC4)cc3)n2)[nH]n1", "study.target": "WPMY1-ACTB-RAB5A", "data.value": "≤ 0.3 µM"}
{"molecule": "CCN(CCO)CCCOc1ccc2c(Nc3cc(CC(=O)Nc4cccc(F)c4)n[nH]3)ncnc2c1", "study.target": "WPMY1-ACTB-RAB5A", "data.value": "≤ 0.3 µM"}
{"molecule": "Cc1n[nH]c2ccc(-c3cncc(OC[C@@H](N)Cc4ccccc4)c3)cc12", "study.target": "WPMY1-ACTB-RAB5A", "data.value": "≤ 0.3 µM"}

Lab note: next molecule to report on.
I have this molecule here, C[C@H]1COCCN1c1cc(C2(S(=O)(=O)C3CC3)CC2)nc(-c2ccc(NC(=S)NCCO)cc2)n1 , and I need its recorded lowest phenotypically active concentration.
≤ 0.3 µM

###

- Tested on: A549-TP53BP1-CLTA
- test: phenotypically active (imaging signature differs from DMSO and reproducible) at any of 0.3-9 uM (binary (1 = active, 0 = inactive)); higher = active
- stated.conditions: treatment time: 24 h
Structures can show the parent of a compound that is named as a salt.
Valid outcomes are listed here; reply with one: t for active, f for inactive

Please review the following examples before continuing.
{"compound": "C/C(=N/NC(=N)N)c1ccc(NC(=O)Nc2ccc(/C(C)=N/NC(=N)N)cc2)cc1", "label.value": "f"}
{"compound": "C[C@@H](Nc1ncnc2[nH]c(-c3ccc(O)cc3)cc12)c1ccccc1 [PKI 166 hydrochloride]", "label.value": "t"}
{"compound": "O=C1CN2Cc3c(ccc(Cl)c3Cl)N=C2N1 [Anagrelide hydrochloride]", "label.value": "f"}
{"compound": "O=C(CCCc1ccc(-c2ccccc2F)cc1)Nc1ccc(O)cc1", "label.value": "t"}
{"compound": "N#Cc1ccccc1OCC(O)CNCCNC(=O)Nc1ccccc1 (centres undefined)", "label.value": "f"}
{"compound": "CCN(CC)CCNc1ccc(CO)c2sc3ccccc3c(=O)c12", "label.value": "t"}
{"compound": "CC(=O)O[C@H]1C(=O)[C@@]2(C)[C@H]([C@H](OC(=O)c3ccccc3)[C@]3(O)C[C@H](OC(=O)[C@H](O)[C@@H](NC(=O)c4ccccc4)c4ccccc4)C(C)=C1C3(C)C)[C@]1(OC(C)=O)CO[C@@H]1C[C@@H]2O", "label.value": "t"}
{"compound": "O[C@H](CNC[C@H](O)[C@@H]1CCc2cc(F)ccc2O1)[C@@H]1CCc2cc(F)ccc2O1", "label.value": "f"}

Which result was noted for this compound in the test: CC(CCc1ccc(O)cc1)NCCc1ccc(O)c(O)c1 (centres undefined) [Dobutamine hydrochloride]
f

Continue with CC[N@@+]1(C)[C@@H]2CC[C@H]1C[C@@H](OC(=O)[C@]1(c3ccccc3)CC[C@H](C(=O)O[C@H]3C[C@H]4CC[C@@H](C3)[N@+]4(C)CC)c3ccccc31)C2 [beta- Belladonnine dichloroethylate]
f

Continue with CC(=O)/N=c1/sc(S(N)(=O)=O)nn1C [methazolamide]
f

Continue with O=C1c2c(O)ccc(O)c2C(=O)c2c(NCCNCCO)ccc(NCCNCCO)c21
t

Continue with COc1ncc2cc(C(=O)Nc3cc(C(=O)NCc4cccc(Cl)c4)ccc3Cl)c(=O)[nH]c2n1
f

Continue with CS(=O)(=O)OCCCCOS(C)(=O)=O
f

Continue with CCOC(=O)Nc1ccc2c(c1)N(C(=O)CCN1CCOCC1)c1ccccc1S2
f

###

// phenotypically active lookup, one value per entry
- Test system: WPMY1-TP53BP1-CLTA
- test: phenotypically active (imaging signature differs from DMSO and reproducible) at any of 0.3-9 uM (binary (1 = active, 0 = inactive)); higher = active
- stated.conditions: treatment time: 24 h
Answer with a number only.

Recorded results for 3 molecules are shown here.
{"mol.smiles": "COc1cc(OC)c2c(=O)[nH]c(-c3cc(C)c(OCCO)c(C)c3)nc2c1", "study.target": "WPMY1-TP53BP1-CLTA", "data.value": 1}
{"mol.smiles": "Cc1cc(C(=O)NNCc2ccccc2)no1", "study.target": "WPMY1-TP53BP1-CLTA", "data.value": 0}
{"mol.smiles": "Cc1nc2c(O)cccc2c(=O)[nH]1", "study.target": "WPMY1-TP53BP1-CLTA", "data.value": 0}

Lab note: next molecule to report on.
I have this molecule here, COc1cc2ncnc(Nc3ccc(O)c(Br)c3)c2cc1OC , and I need its recorded phenotypically active.
1

###

- Tested on: WPMY1-TP53BP1-CLTA
- test: phenotypically active (imaging signature differs from DMSO and reproducible) at any of 0.3-9 uM (binary (1 = active, 0 = inactive)); higher = active
- stated.conditions: treatment time: 24 h
Structures can show the parent of a compound that is named as a salt.
Valid outcomes are listed here; reply with one: true (1) for active, false (0) for inactive

Please review the following examples before continuing.
{"molecule": "Cc1ccc([N+](=O)[O-])cc1S(=O)(=O)N(C)/N=C/c1cnc2ccc(Br)cn12", "label.value": "true (1)"}
{"molecule": "NC1(C(=O)N[C@@H](CCO)c2ccc(Cl)cc2)CCN(c2ncnc3[nH]ccc23)CC1", "label.value": "true (1)"}

Which result was noted for this molecule in the test: O=S(=O)(c1cccc2c(O)nccc12)N1CCCNCC1 [HA 1100 hydrochloride]
true (1)

Continue with C#C[C@]1(O)CC[C@H]2[C@@H]3CCc4cc(OC)ccc4[C@H]3CC[C@@]21C [mestranol]
false (0)

Continue with CC[N+](CC)(CC)CCC(O)(c1ccccc1)C1CCCCC1 (stereo not drawn) [tridihexethyl]
false (0)

Continue with O=C(NCc1ccccn1)Nc1nnc(-c2ccco2)o1
false (0)

###

- System: A549-ACTB-RAB5A
- test: lowest phenotypically active concentration; higher = less potent
- stated.conditions: treatment time: 24 h
// lowest phenotypically active concentration lookup, one value per entry

For the record CC1=C(C(=O)Nc2cc3cn[nH]c3cc2F)C(c2ccc(C(F)(F)F)cc2)CC(=O)N1 (stereo not given) , what value of lowest phenotypically active concentration is listed for A549-ACTB-RAB5A?
≤ 0.3 µM

Continue with CC(C)(C)c1cnc(CSc2cnc(NC(=O)C3CCNCC3)s2)o1
≤ 0.3 µM

Continue with COc1cc2nc(N3CCCN(C)CC3)nc(NC3CCN(Cc4ccccc4)CC3)c2cc1OC
≤ 0.3 µM

Continue with COc1cc2c(NC3CCN(C(C)C)CC3)nc(N3CCC(F)(F)CC3)nc2cc1OCCCN1CCCC1
≤ 0.3 µM

Continue with FC(F)(F)c1ccc(/C=C/c2nc(COc3ccc(CCCCn4ccnn4)cc3)co2)cc1
≤ 0.3 µM

Continue with Clc1ccc(C2(c3ccc(-c4cn[nH]c4)cc3)CCNCC2)cc1
≤ 0.3 µM

Continue with CC(C)(C)c1nc(-c2cccc(NS(=O)(=O)c3c(F)cccc3F)c2F)c(-c2ccnc(N)n2)s1 [dabrafenib]
≤ 0.3 µM

###

- Tested on: A549-ACTB-RAB5A
- test: phenotypically active (imaging signature differs from DMSO and reproducible) at any of 0.3-9 uM (binary (1 = active, 0 = inactive)); higher = active
- stated.conditions: treatment time: 24 h
Valid outcomes are listed here; reply with one: true = active, false = inactive

Please review the following examples before continuing.
{"compound": "CC(COc1ccccc1)N(CCCl)Cc1ccccc1 (stereo not given)", "label.value": "false"}
{"compound": "Nc1ncnc2c1cnn2-c1ccccc1", "label.value": "false"}
{"compound": "COc1nc(N)nc2c1ncn2[C@@H]1O[C@H](CO)[C@@H](O)[C@@H]1O", "label.value": "true"}
{"compound": "N[C@@H](CSC(c1ccccc1)(c1ccccc1)c1ccccc1)C(=O)O", "label.value": "false"}

Which result was noted for this compound in the test: Cc1cnc(C(=O)NCCc2ccc(S(=O)(=O)NC(=O)NC3CCCCC3)cc2)cn1 [glipizide]
false

Origin of measurements: the supplement of paper PMC7411054
